Field: nuclei count. Provide a value for each of the molecules that follow.
experiment_notes: reduction of polyQ htt aggregates in cells – imaging, exon1htt(103Q)mCFP cells, high-content imaging, primary screen (AID 483);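 note: compound exposure lasted 3 days before fixation; percent of the per-plate median nuclei count of sample wells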
recorded_conditions: exon1htt(103Q)mCFP cell line, aggregate imaging, at 2 µM; measured here: cell count, toxicity
Form field: result (number plus unit)

// worked examples, nuclei count included
molecule | observed
O=C(CN(Cc1ccco1)C(=O)c1cc(=O)[nH]c2ccccc12)Nc1ccccc1Br | 103%
COC(=O)c1cc(=O)n(Cc2ccc3c(c2)OCO3)c(=Nc2ccccc2)s1 | 124%
CCc1ccccc1N1C(=O)C2CC(C)=C(C)CC2C1=O (stereo unspecified) | 92.1%

For each entry beneath this line, provide reported nuclei count.
1. Cn1cnnc1Sc1nc2c(c(=O)n(C)c(=O)n2C)n1Cc1ccccc1Cl
2. Cc1ccc2nc(C3CCN(CC(=O)N4CCCCCC4)CC3)[nH]c2c1
3. O=S1(=O)CCC(N=Cc2cc(Br)ccc2O)C1 (stereo unspecified)
4. CN1CCN(c2ncnc3c2cnn3-c2ccc(Cl)cc2)CC1
5. C=CCNc1nc2c(c(=O)n(C)c(=O)n2C)n1CCCCCC
6. CCOc1ccc2nc(Nc3nc4c(c(=O)[nH]3)CCC4)nc(C)c2c1
7. CCOC(=O)N1CCN(c2nc(-c3ccc(Cl)cc3)cs2)CC1
8. COCCOC(=O)C1=C(C)OC(N)=C(C#N)C1c1ccc2c(c1)OCO2 (stereo unspecified)

[reply]
106%
101%
76.6%
116%
94.9%
112%
80.8%
104%

For each entry beneath this line, provide reported nuclei count.
1. COc1cc(S(=O)(=O)NC2CCCCC2C)ccc1Cl (stereo unspecified)
2. O=C1c2ccccc2C(Nc2ccc3c(c2)OCO3)N1Cc1ccc2c(c1)OCO2 (stereo unspecified)
3. CCOC(=O)c1[nH]c2ccc(C)cc2c1N=C(C)N(C)C
4. COCCN(CCOC)C(=O)c1sc2nc(-c3ccccc3)cn2c1C
5. CCOC(=O)N1CCC(NC(=O)Cc2ccc(-n3c(=O)[nH]c4ccccc4c3=O)cc2)CC1

[reply]
["114%", "63.8%", "100%", "119%", "112%"]

For each entry beneath this line, provide reported nuclei count.
1. O=C(NCc1ccccc1)C1CCCN(S(=O)(=O)c2cccnc2)C1 (stereo unspecified)
2. CCc1nnc(NC(=O)c2ccc(S(=O)(=O)NC3CCCCC3)cc2)s1
3. CNc1ccc(C(O)(C(F)(F)F)C(F)(F)F)cc1C(O)(C(F)(F)F)C(F)(F)F
4. Cc1nnc(NC(=O)CCC(=O)N2CCC(C)CC2)s1
5. Cc1ccc(S(=O)(=O)NCC(c2cccnc2)N(C)C)cc1 (stereo unspecified)
6. CC(=O)c1ccc(Oc2cc(C)nc(-n3nc(C)cc3C)n2)cc1

[reply]
1. 92.5%
2. 107%
3. 103%
4. 119%
5. 106%
6. 1.1%

* * *

Field: nuclei count. Provide a value for each of the molecules that follow.
experiment_notes: endothelial E-selectin expression blockers – imaging, HUVEC, immunofluorescence, MLSMR starter and 10KST1 sets, primary screen (AID 487);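 note: 100% = median nuclei count of all wells on the same plate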
recorded_conditions: HUVEC TNFalpha-induced E-selectin immunofluorescence imaging, at 2 µM; measured here: cell number, toxicity
Form field: result (number plus unit)

// worked examples, nuclei count included
molecule | nuclei count
O=C(CN(CC1CCCO1)C(=O)CCC(=O)Nc1ccccn1)NCC1CCCO1 (stereo unspecified) | 122%
COc1ccccc1N1CCN(Cc2nnnn2CCc2ccccc2)CC1 | 92%

For each entry beneath this line, provide reported nuclei count.
1. CCn1cc(C(=O)OCC(=O)OC2CC(C)CCC2C(C)C)c(=O)c2ccc(C)nc21 (stereo unspecified)
2. COc1cccc(OC)c1C(=O)Nc1ccc(CN2CCCCC2)cc1
3. Cc1ccc(S(=O)(=O)N2CCN(C(=O)CSc3nnnn3C)C2)cc1
4. COC(=O)c1cc2ccsc2n1CC(=O)Nc1cc(C)cc(C)c1
5. COCCNc1nc(C(C)(C)C)nc2c1nnn2Cc1ccccc1Cl
6. Cc1ccccc1-c1nc(CN2CCC(C(=O)NCCCN3CCCC3)CC2)c(C)o1
7. CCCC1CCC(C(=O)Nn2cnc3ccccc3c2=O)CC1 (stereo unspecified)
8. COC(=O)CN1C(=O)C(O)(CC(=O)c2ccc(C)cc2)c2cc(Br)ccc21 (stereo unspecified)

[reply]
["104%", "98.8%", "113%", "109%", "111%", "94.2%", "77.6%", "113%"]

Lab book: nuclei count of Cc1ccccc1NS(=O)(=O)c1ccc(NC(=O)c2ccco2)cc1 noted as 119%
